src = PubChem BioAssay AID1822

# System: M18 aspartyl aminopeptidase (Plasmodium falciparum 3D7)
# Experimental Protocol: inhibition of P. falciparum M18 aminopeptidase – biochemical, QFRET, recombinant enzyme, primary screen (AID 1822);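 also: 0% = plate median of test compound wells and 100% = 2 mM ZnCl2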
# Measurement Context: recombinant PfM18AAP, H-Glu-NHMec fluorogenic cleavage; at 7.35 µM; hits give high values
About 3,500 (1.2%) of roughly 290,000 compounds were called active. Only a selection was taken, and actives are over-represented in it overall.
Outcome Measure: inhibition (%)
Give bare numbers, in %.

Okay, here is my list. What is inhibition for each of these?
1. COc1cc(NC(=S)N2CCCC(C)C2)c(OC)cc1Cl (stereo not given)
2. O=C1CSC(=S)N1/N=C/c1ccc(O)c([N+](=O)[O-])c1
3. CCOc1ccc(CCNC(=O)CCc2nnc3ccc(N4CCCC4)nn23)cc1OCC
4. Cc1cccc(C(=O)Nc2ccc(C(=O)N/N=C/c3cccc(C)n3)cc2)c1
5. Cc1cc(C(=O)N/N=C/c2ccc(O)c([N+](=O)[O-])c2)c(C)n1-c1ccc(F)cc1

[33.9, 39.1, -5.76, -3.2, 1.56]
